src = patent US20260242478A1

- assayed_target: T1, Anti-PSMA Fab (SEQ ID NOs: 19, 20)
- T1 construct: Biotinylated and captured on neutravidin coated plates in the phage ELISA; also called 006 PSMA Fab
- assay_notes: phage binding ELISA; biotinylated PSMA Fab on neutravidin plates, clonal phage supernatant, anti-M13 HRP detection
Where no end group is shown, it is not given here.
value_type: Anti-PSMA Fab signal
I only need the number, thanks.

Consider the reported Anti-PSMA Fab signal for these binders:
binder	reported_result
VDHWCTPAWMCDGF (tested as clonal phage supernatant) [Phage-2047]	1.78
FPQWCIPIWMCEHT (tested as clonal phage supernatant) [Phage-2052]	1.78
VPKWCTPAWMCNWN (tested as clonal phage supernatant) [Phage-2051]	1.78
VVHWCIPEWMCERI (tested as clonal phage supernatant) [Phage-2053]	1.78
VAKWCTPPWMCAWL (cysteine pairing not given here; also: fused to phage pIII, pIII sequence and linker not given here, tested as clonal phage supernatant) [Phage-2048]	1.78

// returns reported Anti-PSMA Fab signal for input VDKWCIPQWMCDDQ (tested as clonal phage supernatant) [Phage-2054]
1.77

// returns reported Anti-PSMA Fab signal for input VMPWCIPQWMCVGE (tested as clonal phage supernatant) [Phage-2049]
1.78

// returns reported Anti-PSMA Fab signal for input EVKWCTPEWMCAFL (cysteine pairing not given here; also: fused to phage pIII, pIII sequence and linker not given here, tested as clonal phage supernatant) [Phage-2044]
1.79

// returns reported Anti-PSMA Fab signal for input MDHWCTPPWMCEGW (tested as clonal phage supernatant) [Phage-2042]
1.79

// returns reported Anti-PSMA Fab signal for input EVHRCIPAWMCTTP (tested as clonal phage supernatant) [Phage-2046]
1.79

// returns reported Anti-PSMA Fab signal for input EAIWCVPKWMCEGM (tested as clonal phage supernatant) [Phage-2050]
1.78

// returns reported Anti-PSMA Fab signal for input VPKWCTPSWMCEST (tested as clonal phage supernatant) [Phage-2043]
1.79

// returns reported Anti-PSMA Fab signal for input APKLCIPNWMCVSM (tested as clonal phage supernatant) [Phage-2055]
1.77

// returns reported Anti-PSMA Fab signal for input WLNWCTPEWMCNGF (tested as clonal phage supernatant) [Phage-2056]
1.77

// returns reported Anti-PSMA Fab signal for input IDKWCIPMWMCEMS (tested as clonal phage supernatant) [Phage-2045]
1.79
